Listed binders paired with reported pKd
- TARGET: T1, EsCas13d, nuclease-dead (Eubacterium siraeum, UniProt B0MS50, R295A;H300A;R849A;H854A)
- T1 sequence: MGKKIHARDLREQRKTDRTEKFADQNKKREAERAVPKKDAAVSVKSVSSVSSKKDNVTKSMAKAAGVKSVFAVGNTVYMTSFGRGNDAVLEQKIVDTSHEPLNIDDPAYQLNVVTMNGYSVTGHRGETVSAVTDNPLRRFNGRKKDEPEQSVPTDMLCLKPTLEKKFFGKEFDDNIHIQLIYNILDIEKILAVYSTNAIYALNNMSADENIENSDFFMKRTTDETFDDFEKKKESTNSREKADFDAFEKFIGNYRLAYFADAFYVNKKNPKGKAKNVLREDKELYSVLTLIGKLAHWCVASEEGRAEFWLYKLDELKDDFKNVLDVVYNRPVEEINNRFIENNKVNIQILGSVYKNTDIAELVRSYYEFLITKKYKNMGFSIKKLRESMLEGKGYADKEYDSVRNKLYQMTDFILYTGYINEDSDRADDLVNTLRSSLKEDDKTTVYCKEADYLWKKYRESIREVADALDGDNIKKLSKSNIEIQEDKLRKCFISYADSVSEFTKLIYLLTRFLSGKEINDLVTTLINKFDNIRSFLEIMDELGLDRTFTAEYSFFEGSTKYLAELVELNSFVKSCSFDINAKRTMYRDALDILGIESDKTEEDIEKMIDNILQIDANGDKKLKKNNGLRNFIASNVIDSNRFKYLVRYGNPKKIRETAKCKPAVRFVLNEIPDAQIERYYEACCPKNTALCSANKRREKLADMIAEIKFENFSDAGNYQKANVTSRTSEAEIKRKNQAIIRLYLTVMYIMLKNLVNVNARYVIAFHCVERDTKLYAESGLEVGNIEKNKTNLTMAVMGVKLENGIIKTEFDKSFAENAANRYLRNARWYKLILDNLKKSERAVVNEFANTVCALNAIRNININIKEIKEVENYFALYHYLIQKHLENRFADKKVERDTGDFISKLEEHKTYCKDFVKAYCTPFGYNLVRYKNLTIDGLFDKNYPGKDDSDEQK
- ASSAY PROCEDURE: crRNA (strand 1, pre-loaded); Mg2+; 40 mM Tris-HCl pH 7.5, 150 mM NaCl, 6 mM MgCl2, 1 mM DTT, 0.1% Tween-20, 0.2 mg/ml BSA; 25 C; 10 min per concentration, then washed
- RUN CONDITIONS: tags: His6-TwinStrep-SUMO cleaved; N-terminal SNAP kept (SNAP-Surface 488); label: 3' end held by stalled T7 RNA polymerase
Note on pKd: it is the negative log10 of concentration, concentration in mol/L.

Answered cases to consult:
binder="target 1 MT 5'PFS CUG 3'PFS CGU (mixed) RNA 1: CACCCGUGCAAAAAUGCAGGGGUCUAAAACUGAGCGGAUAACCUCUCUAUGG RNA 2: GGGAAUGGAUCCACAUCUACGAAUUCCUGCCAUAGAGAGGUUAUCCGCUCACGUAGAUCGGAAGAGCACACGU" assay_metric=pKd reported_result=7.68
binder="target 1 C7G,C22U (mixed) RNA 1: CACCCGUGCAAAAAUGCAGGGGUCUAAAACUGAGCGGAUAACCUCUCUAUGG RNA 2: GGGAAUGGAUCCACAUCUACGAAUUCGUAUCAUAGAGAGGUUAUGCGCUCACCGAGAUCGGAAGAGCACACGU" assay_metric=pKd reported_result=7.86
binder="target 1 insC 3' of 10,insC 3' of 3 (mixed) RNA 1: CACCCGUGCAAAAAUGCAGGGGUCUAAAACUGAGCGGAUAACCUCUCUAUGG RNA 2: GGGAAUGGAUCCACAUCUACGAAUUCGUACCAUAGAGAGGUUCAUCCGCUCCACCGAGAUCGGAAGAGCACACGU" assay_metric=pKd reported_result=7.69
binder="target 1 insG 3' of 16,insG 3' of 7 (mixed) RNA 1: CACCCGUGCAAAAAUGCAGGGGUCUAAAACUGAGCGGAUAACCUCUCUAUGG RNA 2: GGGAAUGGAUCCACAUCUACGAAUUCGUACCAUAGAGGAGGUUAUCGCGCUCACCGAGAUCGGAAGAGCACACGU" assay_metric=pKd reported_result=7.78

**Q:** Entry target 2 MT 5'PFS CGC 3'PFS UAC (mixed) RNA 1: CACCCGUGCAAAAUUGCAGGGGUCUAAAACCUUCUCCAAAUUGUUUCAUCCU RNA 2: GGGAAUGGAUCCACAUCUACGAAUUCCGCAGGAUGAAACAAUUUGGAGAAGUACAGAUCGGAAGAGCACACGU : reported pKd = ?
**A:** 8.20

**Q:** For the binder shown here, target 3 insA 3' of 14,insA 3' of 2 (mixed) RNA 1: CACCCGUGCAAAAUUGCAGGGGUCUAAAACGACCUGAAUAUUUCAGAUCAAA RNA 2: GGGAAUGGAUCCACAUCUACGAAUUCGUUUUUGAUCUGAAAAUAUUCAGGUACUGCAGAUCGGAAGAGCACACGU , give the reported pKd.
**A:** 7.19

**Q:** What value of measured pKd is listed for target 1 insC 3' of 19,insU 3' of 4 (mixed) RNA 1: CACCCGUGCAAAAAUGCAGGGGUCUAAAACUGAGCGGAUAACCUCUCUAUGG RNA 2: GGGAAUGGAUCCACAUCUACGAAUUCGUACCAUCAGAGAGGUUAUCCGCUUCACCGAGAUCGGAAGAGCACACGU ?
**A:** 7.49

**Q:** # get_value(readout='pKd', item= target 1 MT 5'PFS UGA 3'PFS CCU (mixed) RNA 1: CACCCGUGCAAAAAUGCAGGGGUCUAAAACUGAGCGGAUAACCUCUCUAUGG RNA 2: GGGAAUGGAUCCACAUCUACGAAUUCUGACCAUAGAGAGGUUAUCCGCUCACCUAGAUCGGAAGAGCACACGU )
**A:** 7.44
